Tested on: Fibroblast
assay.info: Multiplex assay against human fibroblast
Type: toxicity, cell-based
condition: 24 h, 1 µM, compound concentration 1 uM, replicate 2
Classification scheme (Population Healthy Nuclei (%)): range 1 = under 60%, range 2 = from 60% up to 80%, range 3 = 80% and over

These recorded examples may help you get a feel for the data.
COC(=O)C1=C(C)NC(C)=C(C(=O)OCCCN2CCC(c3ccccc3)(c3ccccc3)CC2)[C@H]1c1cccc([N+](=O)[O-])c1 [NIGULDIPINE] :: range 2
CCc1nn(CCCN2CCN(c3cccc(Cl)c3)CC2)c(=O)n1CCOc1ccccc1.Cl [NEFAZODONE HYDROCHLORIDE] :: range 3

Incoming: Kindly identify the class of C[C@]12CC[C@@H]3c4ccc(O)cc4CC[C@H]3[C@@H]1CC[C@@H]2O [ESTRADIOL] .
Outgoing: range 3

Incoming: Kindly identify the class of CCCSc1nc(N[C@@H]2C[C@H]2c2ccc(F)c(F)c2)c2nnn([C@@H]3C[C@H](OCCO)[C@@H](O)[C@H]3O)c2n1 [TICAGRELOR] .
Outgoing: range 3

Incoming: Kindly identify the class of CN1CCN(Cc2ccc(Nc3ncc(Cl)c(Nc4ccccc4S(=O)(=O)N(C)C)n3)cc2)CC1 [DUBERMATINIB] .
Outgoing: range 3

---

System: U2OS
assay.info: Multiplex assay against U2OS
Assay type: toxicity, cell-based
condition: human, 12 h, 10 µM, compound concentration 10 uM, replicate 1
assay.readout: Population Mitochondria Different-Phenotype (%)
// note: answer is a bare numeric in %

The following compounds have reported results that may help.
CN1CCN(Cc2ccc(Nc3ncc(Cl)c(Nc4ccccc4S(=O)(=O)N(C)C)n3)cc2)CC1 :: 40
Cc1c[nH]c2nccc(Oc3c(F)cc(Nc4cc(Cl)nc(N)n4)cc3F)c12 :: 19
C=CC(=O)Nc1ccc2[nH]c(=O)n(C3CCN(Cc4ccc(-c5nc6cc[nH]c(=O)c6cc5-c5ccccc5)cc4)CC3)c2c1 :: 18

// next item, Population Mitochondria Different-Phenotype (%) requested
Incoming: Which Population Mitochondria Different-Phenotype (%) reading was recorded for the compound CNC(=O)Nc1ccc(-c2nc(N3CC4CCC(C3)O4)c3cnn(C4CCC5(CC4)OCCO5)c3n2)cc1 ?
Outgoing: 88

---

Test system: Fibroblast
assay.info: Multiplex assay against human fibroblast
Assay type: toxicity, cell-based
condition: 48 h, 1 µM, compound concentration 1 uM, replicate 2
Listed next: entries and their corresponding Population Hoechst High Intensity Objects (%).
// note: answer is a bare numeric in %

The following compounds have reported results that may help.
Cc1ccccc1C(c1ccccc1C)N1C2CCC1CC(O)(c1ccccc1)C2 (stereo not given) :: 0
CCc1nn(CCCN2CCN(c3cccc(Cl)c3)CC2)c(=O)n1CCOc1ccccc1.Cl [NEFAZODONE HYDROCHLORIDE] :: 13
CC1=C(C(=O)Nc2cc3cn[nH]c3cc2F)C(c2ccc(C(F)(F)F)cc2)CC(=O)N1 (stereo not given) :: 22

Incoming: Param readout = Population Hoechst High Intensity Objects (%); param system = Fibroblast; param query = CC(C)OC(=O)N1CCC(Oc2ncnc3c2cnn3-c2ccc(S(C)(=O)=O)cc2F)CC1 ; response: value
Outgoing: 13

Incoming: Param readout = Population Hoechst High Intensity Objects (%); param system = Fibroblast; param query = Cc1c[nH]c2nccc(Oc3c(F)cc(Nc4cc(Cl)nc(N)n4)cc3F)c12 ; response: value
Outgoing: 11
